Exercise: state measured growth for each of the compounds provided.
# Test system: OVCAR-3 ovarian
# Experiment Description: NCI-60 one-dose screen, 48 h (100 = growth as untreated, 0 = no growth, -100 = all killed)
# Condition Notes: 10 µM unless noted
This is part of a sample that, as a whole, favours compounds with a hit. Of some 83,000 tested, about 20% had one in any assay.
Respond numerically; units are % and should not be typed.

Item: CN1CCN(Cc2ccc(NC(=O)c3[nH]ncc3Nc3ccnc4ccsc34)cc2)CC1 | growth: 22.6

Lab book: growth of COc1ccc(CNc2nccnn2)cc1 noted as 105

Summary for this compound, Cc1cc(Nc2nc(N3CCN(C)CC3)nc3ccccc23)n[nH]1 : growth is 75.8

According to the records, this compound O=C1C(=O)N(CCCCn2cc(CO)nn2)c2ccccc21 displays growth of 115

====

# Test system: KM12 colon
# Experiment Description: NCI-60 one-dose screen, 48 h
# Condition Notes: 10 µM unless noted
# Method: Growth inhibition of the KM12 human tumor cell line is measured as a screen for anti-cancer activity. Cells are grown in 96 well plates and exposed to the test compound for 48 hours. Compounds are tested at a single concentration, which is 10^-5 M for most compounds. The reported endpoint is percent growth (GI% or GIPRCNT), where numbers from 0 - 100% represent growth inhibition, and numbers from -100% - 0 represent cell death. For example, a value of 40 represents 60% growth inhibition. […]
This is part of a sample that, as a whole, favours compounds with a hit. Of some 83,000 tested, about 20% had one in any assay. Active and inactive are the calls of the source. Rule for the calls: active = growth percent below 10; inactive = the rest.
# output must be one of 1 = active, -1 = inactive

Query: // param item: COc1ccc(C(=O)c2sc3nc4c(cc3c2N)CCCC4)cc1OC ; yields the recorded call
Reply: -1

Query: Tell me the recorded outcome of this test for CCOC(=O)C(Cc1cc(I)c(O)c(I)c1)NC(=O)c1ccccc1 (stereo not given) .
Reply: -1

Query: Assay outcome for CNC(=S)N/N=C/CSC/C=N/NC(=S)NC : what was it?
Reply: -1

Query: Which outcome was assigned to CCCCCCCCOC(=O)CC[C@@H](C)[C@H]1CC[C@H]2[C@@H]3[C@H](OC(=O)CCN)C[C@@H]4C[C@H](OC(=O)CCN)CC[C@]4(C)[C@H]3C[C@H](OC(=O)CCN)[C@]12C in this test?
Reply: -1

Query: Called result for O=c1c2c3c(sc2n2c(CCl)nnc2n1Cc1ccccc1)CCCC3
Reply: 1

Query: Which outcome did this test record for the molecule CC(=O)C1=C(O)C=C2Oc3c(C(=O)/C=C/c4ccccc4)c(O)c(C)c(O)c3[C@]2(C)C1=O ?
Reply: -1

Query: Answer briefly: the call reported for CCN(CC)CC(O)CNc1c2ccc([N+](=O)[O-])cc2nc2cc(OC)c(OC)cc12 (stereo not given) in this assay.
Reply: 1

Query: # outcome recorded in this test, key = COC1=CC(=O)C(OC)=C(OC)C1=O
Reply: -1

Query: Any idea what this test logged for CCCCNC(=O)NS(=O)(=O)c1ccc(N2N=C(c3cc(C)ccc3C)CC2c2cc(OC)c(OC)c(OC)c2)cc1 (stereo not given) ?
Reply: -1

Query: In this assay, the call recorded for COc1cc(-c2nc3ccccc3s2)ccc1NC(=O)COc1ccc(Cl)cc1 was what?
Reply: -1

Query: Dear colleague, could you share the recorded outcome for CCN(CC)CCCCNc1ccc(NCCCCN(CC)CC)c2c1C(=O)c1ccccc1C2=O when you have a moment?
Reply: -1

Query: Dear all, I need the recorded test outcome for COc1nc2c(cc1S(=O)(=O)c1ccccc1)CCc1c-2cnn1-c1ccc(Cl)cc1 , thank you.
Reply: -1

Query: What did this assay record as the result for c1ccc2c(Nc3cccc4ccccc34)cccc2c1 ?
Reply: -1

Query: // param item: CCc1ccc(C(c2ccc(CC)cc2)C(Cl)(Cl)CCl)cc1 ; yields the recorded call
Reply: -1

Query: Returns: the outcome recorded for COc1ccc(C2Nc3ccccc3-n3cccc32)cc1 (stereo not given) in this assay.
Reply: -1

====

# Test system: SNB-19 CNS
# Experiment Description: NCI-60 one-dose screen, 48 h
# Condition Notes: 10 µM unless noted
About 83,000 compounds went through this panel and 20% of them were active in at least one assay; those are over-represented in the sample as a whole. Activity calls are given as the source filed them. Rule for the calls: active = growth percent below 10; inactive = the rest.
// one of active, inactive, no free text

Query: I'd appreciate the recorded outcome for Cc1cc(Nc2nc(N3CCN(C)CC3)nc3ccccc23)n[nH]1 from this test.
Reply: inactive

Query: Per the records of this test, what outcome belongs to Cc1ccc(NC(=O)c2sc3nc4c(cc3c2N)C(=O)CCC4)cc1C ?
Reply: inactive

Query: Could you kindly confirm the outcome this assay logged for O=C(/C=C/c1ccc(Cl)cc1)c1ccc(O)c(CN2CCN(c3cc4c(cc3F)c(=O)c(C(=O)O)cn4C3CC3)CC2)c1 ?
Reply: inactive

Query: For C[C@@H]1CC[C@@H]2[C@@H]1[C@H](OC(=O)/C=C/c1ccccc1)[C@]1(C3CCCCC3)C[C@@H](OC(=O)CO)[C@@]2(C)O1 , what call appears in the results of this test?
Reply: inactive

Query: Record lookup: outcome of this test for O=C1c2cccnc2C(=O)c2c1c(C(=O)OCCN1CCOCC1)c1ccccn21 ?
Reply: active

Query: Recorded call for COc1cc(-c2c3c(nc4c2c(C)nn4-c2ccccc2)-c2ccccc2C(=O)C3=O)cc(OC)c1OC ?
Reply: inactive

====

# Test system: SN12C renal
# Experiment Description: NCI-60 one-dose screen, 48 h (100 = growth as untreated, 0 = no growth, -100 = all killed)
# Condition Notes: 10 µM unless noted
The panel holds about 83,000 compounds, 20% with a hit somewhere; the sample as a whole holds those more often.
Attribute Measured: growth (%)
The answer is to be given in %; state only the numeric part.

Short answer for COC(=S)SCN(CSC(=S)OC)c1ccc(Cl)cc1 : growth was 80.7

Reported growth of CCCCCCCCCCCCCCCCCCSC1=CC(=O)C(OC)=C(OC)C1=O : 80.9

Measured growth, Cc1ccc(S(=O)(=O)n2cc(-c3csc(-c4cn(C)c5ncccc45)n3)c3ccccc32)cc1 : 77.6

Sample COCCCN=C(N)c1ccc(NC(=O)c2ccc(C(=O)Nc3ccc(C(N)=NCCCOC)cc3)cc2)cc1 ; growth observed: 95

Entry CCOC(=O)c1c2c(n3ccc(NC(=O)CCN4CCCCC4)cc13)C(=O)c1ncccc1C2=O , growth reported as 30.2

Consider CCCCCC(=O)Oc1ccc(/C(=C(\C)c2ccccc2)c2ccc(OCCN(CC)CC)cc2)cc1 . Its measured growth is 79.8

// growth value for CCOC(=O)/C=C/C(=O)[C@H](CC(C)C)NC(=O)[C@H](Cc1ccccc1)NC(=O)OCc1ccccc1 : 57.2

Lab book: growth of CS(=O)(CCCCN=C=S)=NC(=O)c1c(F)c(F)c(F)c(F)c1F (stereo unspecified) noted as 90.9

Value of growth reported for the compound CCc1ccccc1NC(=O)c1sc2nc3c(cc2c1N)C(=O)CCC3 is 45.4

Item: COc1cc(C2CC(=O)c3c(C)nn(-c4nc5ccccc5[nH]4)c3C2)cc(OC)c1OC (stereo unspecified) | growth: 75.9

Noted for CCNS(=O)(=O)c1ncnc2nc[nH]c12 : its growth reads 112

Entry under test: CN1Cc2c(cc(CN3CCCCC3)n2C)C(c2ccc(Br)cc2)C1 (stereo unspecified) . Its growth was 84.8

Entry CCOC(=O)CC(=O)c1c(C)cc(C)cc1C , growth reported as 94.1

Reported growth for CCOC(=O)C(=Cc1ccccc1F)C(=O)OCC was 86.9

Value of growth reported for the compound COc1ccc2[nH]c(=O)c(/C=C/C(=O)c3ccc(Nc4nccc(-c5ccc6ccccc6c5)n4)cc3)cc2c1 is 94.5

# growth of CC(=O)C1=C(O)C=C2Oc3c(C(=O)/C=C/c4c(Cl)cccc4Cl)c(O)c(C)c(O)c3[C@]2(C)C1=O = -30.9

According to the records, this compound C(=N\Nc1ccccn1)/c1ccccn1 displays growth of 36.5

Entry CN(C)C(=O)c1cc2cnc(Nc3ccc(-c4csc5c(=O)cc(N6CCNCC6)oc45)cc3)nc2n1C1CCCC1 — recorded growth = 24.2

Measured growth of CCOC(=O)c1cnc2ccc(OC)cc2c1Nc1cccc(S(=O)(=O)NC)c1 : 92.9

// growth value for CC(=O)OCC1OC(OC2=C(CC=C(Cl)Cl)C(=O)c3ccccc3C2=O)C(OC(C)=O)C(OC(C)=O)C1OC(C)=O (stereo unspecified) : 85.8

The compound listed as NCc1cn2cc(Cl)sc2n1 has a reported growth of 105

Noted for Clc1ccc(-c2nnc(COc3ccccc3Cl)o2)cc1 : its growth reads 97.8

// growth lookup, compound = Cc1cc(Nc2nc(N3CCNCC3)nc3ccccc23)n[nH]1 , result: 76.1

growth for CC1=C(NCCN2CCCC2)C(=O)c2c(OCc3ccc(F)c(Cl)c3)cccc2C1=O is 71.2

Input O=C(CN1CCN(c2cc3c(cc2F)c(=O)c(C(=O)O)cn3C2CC2)CC1)Nc1nc(-c2ccccc2)cs1 . Output growth: 71.2

Entry CCN(CC)CC(C)Nc1ccc([N+](=O)[O-])c2sc3ccccc3c(=O)c12 (stereo unspecified) , growth reported as 37.2

Notebook: Cc1ccc(SCN2CCN(c3cccc(Cl)c3)CC2)cc1 , growth read as 75.6

Data point: CCN(CC)CC(C)(C)C(=O)/C=C/c1ccccc1 ; growth = 41.1

// sample COc1ccc(S(=O)(=O)NCCNc2nccc(-c3c(-c4cccc([N+](=O)[O-])c4)nc4sccn34)n2)cc1 , its growth was 70.3

Lab note: COc1cc(NCCCCN=C(N)NC(N)=NC(C)C)c2ncccc2c1 gave growth of 32.6

// growth lookup, compound = O=C(/C=C/c1ccc(Cl)cc1)c1ccc(O)c(CN2CCN(c3cc4c(cc3F)c(=O)c(C(=O)O)cn4C3CC3)CC2)c1 , result: 26.8

Data credit: PubChem BioAssay (NCI)
